# condition set: Liquid; Capillary flow
measured endpoint: Critical temperature (K)

| compound | measured endpoint | reported |
| --- | --- | --- |
| C1CCNCC1 | Critical temperature | 594.4 |

[P] COCCOCCOCCOCCOC
[Q] COCOC
-- ask I need your help: which of the pair P , Q has higher Critical temperature? Returns: label corresponding to the selected item.
-- reply P

###

# condition set: Liquid; Visual
measured endpoint: Critical pressure (kPa)

| compound | Critical pressure, kPa |
| --- | --- |
| CC(C)C1CCCCC1 | 2940 |
| C[C@@H]1CCC[C@H](C)C1 [cis-1,3-dimethylcyclohexane] | 3040 |
| CN1CCCC1 | 4000 |
| C[C@@H]1CCCC[C@H]1C (relative stereo) [trans-1,2-dimethylcyclohexane] | 3080 |

[I] COCCOC
[II] CCCCC1CCCCC1
-- ask Of I and II , which shows the smaller Critical pressure value? Returns: label corresponding to the selected item.
-- reply II
(II: 2510 kPa, I: 3830 kPa)

###

# condition set: Liquid; Capillary flow
measured endpoint: Critical pressure (kPa)

[A] CC(=O)N(C)C [N,N-dimethylethanamide]
[B] COC(=O)c1ccc(C(=O)OC)cc1 [dimethyl 1,4-benzenedicarboxylate]
-- ask Of A and B , which shows the smaller Critical pressure value? Returns: label corresponding to the selected item.
-- reply B
(B: 2760 kPa, A: 4260 kPa)

###

# condition set: Liquid; Visual
measured endpoint: Critical molar volume (m3/mol)

| compound | Critical molar volume (m3/mol) |
| --- | --- |
| CC(C)C1CCCCC1 | 0.00048 |
| C[C@@H]1CCCC[C@@H]1C [cis-1,2-dimethylcyclohexane] | 0.00041 |
| CCC1CCCCC1 | 0.00043 |
| CCCCc1ccccc1 | 0.0005 |
| C[C@H]1CC[C@H](C)CC1 [trans-1,4-dimethylcyclohexane] | 0.00042 |
| CN1CCCC1 | 0.0003 |
| S=C=S [carbon disulfide] | 0.000176 |
| CC(C)(C)c1ccccc1 | 0.00048 |

[a] CCC(C)c1ccccc1 (centres undefined)
[b] COCCOC
-- ask I need your help: which of the pair a , b has higher Critical molar volume? Returns: label corresponding to the selected item.
-- reply a

###

# condition set: Liquid; Visual observation in an unstirred cell
measured endpoint: Critical temperature (K)

| compound | reported |
| --- | --- |
| CC(C)(C)c1ccccc1 | 646.9 |
| CC(C)(C)C1CCCCC1 | 646.9 |
| CCCCC1CCCCC1 | 649.3 |
| C[C@@H]1CCCC[C@H]1C (relative stereo) [trans-1,2-dimethylcyclohexane] | 596.3 |
| C[C@@H]1CCCC[C@@H]1C [cis-1,2-dimethylcyclohexane] | 607.29 |
| S=C=S [carbon disulfide] | 552.5 |
| CC(C)C1CCCCC1 | 635.3 |
| C[C@H]1CC[C@H](C)CC1 [trans-1,4-dimethylcyclohexane] | 585.84 |
| CCCCc1ccccc1 | 660.3 |
| CCC(C)c1ccccc1 (centres undefined) | 653 |
| CN1CCCC1 | 548.62 |
| C[C@@H]1CCC[C@H](C)C1 [cis-1,3-dimethylcyclohexane] | 586.1 |
| CCC1CCCCC1 | 605.9 |
| COCCOC | 535.32 |
